Provenance of the data: the supplement of paper PMC12042874

Here the recorded amyloid nucleation score is given for each entry.
- test: amyloid nucleation score (Sup35N fusion, yeast selection) (log enrichment); library NNK1; higher = more nucleation; inactive = no reads after selection;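 further: zero at mode of non-aggregating sequences after 7 days selection at 30°C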
quantity-kind: amyloid nucleation score

>>> measured("NFVQLAWLVRWAWEV")
-0.088
>>> measured("CSRNDTVHATINMWDNSATA")
-0.07
>>> measured("LIWSHVLDGYSCEKPSNRMC")
-0.662
>>> measured("GSALIE")
1.5
>>> measured("FGLCCRSRVFWRWLIKDWKD")
-0.566
>>> measured("LVPVITWK")
4.3
>>> measured("IRELRSDFSGSMVDERFLGE")
0.489
>>> measured("DFNSISDAKNCWSYLM")
1.25
>>> measured("RWIPQNMHQLWKASDGNERM")
-0.697
>>> measured("WDMAFSVALGLRYMRCGLKL")
-0.286
>>> measured("TRYGVYQYVVDSLINCHLLE")
-0.186
>>> measured("SCRSGRRRPLPTGGPILATN")
-0.015
>>> measured("LTCEFRGTRPMMYASDPLFY")
1.14
>>> measured("GTGHVFQCCRMTLLQSSLDG")
-0.832
>>> measured("NSCTGSGGCSWEDKGNWCVK")
0.183
>>> measured("TGWEVV")
-1.16
>>> measured("EGSVGHRMVSWVFISYTLVL")
0.006
>>> measured("VVLKNHRHSVLSWWLTS")
-0.622
>>> measured("SPTVERSTGIR")
-0.089
>>> measured("VGMYGSVSFMS")
-1.02
>>> measured("ISSWTHVW")
1.23
>>> measured("MWEALW")
0.601
>>> measured("VRVSVLLVYSGGRFSFPWVL")
-0.063
>>> measured("GIPSKTFDVCSSPNIKSILF")
0.317
>>> measured("SMAPGDSS")
0.02
>>> measured("YWNMTCNTV")
-0.139
>>> measured("GRRGKWVSSPWGGELKTCSK")
4.24
>>> measured("NMVLRFQCLWFCFISIPF")
3.16
>>> measured("NFGAQRYHSRLLL")
-0.223
>>> measured("LHIAMTVYC")
2.42
>>> measured("TWVMFDVWGRVDYER")
0.169
>>> measured("VVLDAFIPWYSLLATSSVGA")
-0.777
>>> measured("NNQHDGYSIFILDRQPLRAM")
0.488
>>> measured("LAITDKCSRALSLLSCPDF")
0.265
>>> measured("FKLWQVFRKSSMFQRGWGIG")
0.462
>>> measured("MYREYLGRSRRQFYFGTGKH")
3.82
>>> measured("YVNFLGLLDCEL")
-0.028
>>> measured("ATHKNWIKRDTVHSLDGC")
0.041
>>> measured("NPPWQCGVRHDHLWVTSYHS")
-0.481

---

- test: amyloid nucleation score (Sup35N fusion, yeast selection) (log enrichment); library NNK3; higher = more nucleation; inactive = no reads after selection
quantity-kind: amyloid nucleation score

>>> measured("RSSLLSRVLSEITHSWQLCA")
"inactive"
>>> measured("LFNDLVAHKGPDYITYATCV")
"inactive"
>>> measured("AYNSYELVRAL")
"inactive"
>>> measured("SWGQVGYIEFFIGSSCHVS")
-0.378
>>> measured("VCGILAISGLLT")
"inactive"
>>> measured("VNIYGCSYVLHPGCCNGESR")
2.84
>>> measured("FMTVQLLH")
1.85
>>> measured("TMQEGRLSSWYSTVFFS")
-0.073
>>> measured("IRRDLYQATPRNLVWAYFGW")
"inactive"
>>> measured("SCVWFSL")
"inactive"
>>> measured("IYGHCCIISAWVWGNESLVL")
"inactive"
>>> measured("LFKMSV")
"inactive"
>>> measured("DCGSSCKSYPGKVVDNEMDE")
"inactive"
>>> measured("YDCKLSRAVLRGV")
"inactive"
>>> measured("SLGAMYVRCDKSWR")
"inactive"
>>> measured("SFHSPYL")
"inactive"
>>> measured("PTGFLLPDAGWKIYTGSLDV")
"inactive"
>>> measured("TVYIAYTCVAVRSHSEHLFD")
"inactive"
>>> measured("FGSGRVSQLVRYDSFLEEFL")
"inactive"
>>> measured("YFLYMCALTHRWFWFKFFER")
"inactive"
>>> measured("NLVLCN")
"inactive"
>>> measured("VNMISCVYFDMSIERTDEMI")
0.801
>>> measured("EGIGDVCCKTPEYRSFGWMR")
-1.13
>>> measured("SFLSWMVFANFKRVHPGWVP")
"inactive"
>>> measured("SACVGFMGPRNIRL")
"inactive"
>>> measured("LFEYGYCMIGIQLLKRY")
"inactive"
>>> measured("MDLCMETGQYSLRNTVCAFL")
"inactive"
>>> measured("FDHPFICIKPRATRREAWLT")
"inactive"
>>> measured("FGRYPMYIASLITNSKVFGC")
-0.709
>>> measured("DSSKVGFSALVNVSTIA")
"inactive"
>>> measured("DECVYLFKNSYSVIILMFFK")
"inactive"
>>> measured("VSSAYLKCSFLKNLAVSLYG")
"inactive"
>>> measured("DPSCGECFKA")
0.961
>>> measured("LGYDWRDVNNGK")
"inactive"
>>> measured("IYVGHK")
"inactive"
>>> measured("VVLSWT")
-0.477

---

- test: amyloid nucleation score (Sup35N fusion, yeast selection) (log enrichment); library NNK1; higher = more nucleation; inactive = no reads after selection
Overview of reported amyloid nucleation score across a group of sequences:
quantity-kind: amyloid nucleation score

>>> measured("LGMIADYQKQKMMSSGTSLR")
0.289
>>> measured("GLRKYVKPVYSMCVFFLKWA")
1.02
>>> measured("TGTDVQGRSRLSDRAWGGYD")
-0.098
>>> measured("LTLKTSNHFIYLSLLYIRVV")
-0.03
>>> measured("NCVVYDIEYICWNIGGKI")
5.71
>>> measured("WFNWVCCNGNAWIKDRF")
7.66
>>> measured("NRTIFVVRHTDFGYLA")
0.661
>>> measured("MTHAFLRWSYLFRNIWMHVF")
0.349
>>> measured("TFTVAEQVALE")
0.415
>>> measured("VKTPSVRIKWDVISLSLPCA")
0.156
>>> measured("VQADFFCSAPGHCIWVNGMR")
1.73
>>> measured("TCIWDKPVSSGL")
-0.543
>>> measured("NCEFIVWGVSSNFEMVFGLM")
-0.267
>>> measured("GYACTFVLA")
0.136

---

- test: amyloid nucleation score (Sup35N fusion, yeast selection) (log enrichment); library NNK2; higher = more nucleation; inactive = no reads after selection
Recorded amyloid nucleation score determines the label; the label ranges are low (below -0.1), mid (-0.1 to below 0.7), high (0.7 or more)

>>> group("YYLGWIMLVHYGSWTTCLVR")
"mid"
>>> group("IIGASCTNNSRMVLVWATVF")
"low"
>>> group("VHAVGHNSIGTRIRWVNGAA")
"mid"
>>> group("ITLGLQLCGFNCMTGLVRWS")
"mid"
>>> group("DRLGSRERDG")
"high"
>>> group("KLPFELKSDDFTCFNWANSR")
"mid"
>>> group("DGAGKYTSPSDYDDRYRLAV")
"mid"
>>> group("WPRFTCCPTYYICIAQSPGQ")
"high"
>>> group("MFLNPQPVFDLISFNVVSTP")
"high"
>>> group("YSRFYLYMSRRGMRS")
"low"
>>> group("SDLLFVLASLSCLQWNKDIA")
"low"
>>> group("TSFNQELEFFLCGGDVDCNR")
"low"
>>> group("HNSLMRMVWLNKHPK")
"mid"
>>> group("SFPDSSRSKWIS")
"low"
>>> group("SRFLARQLLKSASLRLFVET")
"low"
>>> group("RRDNPWLSHVIW")
"high"
>>> group("TTTQKGCGVYVAREVSWGLG")
"high"
>>> group("VCCFLLHQN")
"high"
>>> group("NWKWVRSKVAWPMRSEHHVE")
"high"
>>> group("VSLMKYQVELGNWKEPTCLG")
"mid"
>>> group("AFLRFMKRRQLNLLKYAFCC")
"high"
>>> group("KTMANI")
"low"
>>> group("IYTNSISACDDVVGKNRVFA")
"low"
>>> group("LEYERC")
"mid"
>>> group("DLYSHSFNLHGYSMRVCYNE")
"mid"
>>> group("TYFLGPLVSNSLRYY")
"high"
>>> group("RESTTRMSAGNVYRVTHKHS")
"mid"
>>> group("RYNDAFSVCRMDEITAWIWC")
"high"
>>> group("RERDNVMDIVGSAMRDCCQF")
"mid"
>>> group("ICFWMACKIECCQQRTNFVS")
"low"
>>> group("LMFLGWASRNLVDKSTFKWI")
"low"
>>> group("AANDMPMNSPIFSLGSDMPH")
"high"
>>> group("TSGQHD")
"low"
